Test system: Pseudomonas aeruginosa UC-12120
experiment_description: minimum inhibitory concentration (MIC) testing according to CLSI guidelines, Pseudomonas aeruginosa
Type: cell-based
condition_context: Pseudomonas aeruginosa, UC12120; UC-12120, wild-type, labeled as 1091-05; overnight incubation; lower of duplicate values; read-out: AB-MBT: Pseudomonas aeruginosa 1091-05: MIC (MstRcn)
Entries and their MIC
measurement_label: MIC (µg/mL)

>>> numeric_value("CC(C)(O/N=C(\\C(=O)N[C@@H]1C(=O)N(S(=O)(=O)O)[C@@H]1CNC(=O)c1ccnc(-c2cc(=O)c(O)cn2O)n1)c1csc(N)n1)C(=O)O [Example 23]")
1
>>> numeric_value("CC(C)(O/N=C(\\C(=O)N[C@@H]1C(=O)N(S(=O)(=O)O)[C@@H]1CNC(=O)CNC(=O)c1cc(=O)c(O)cn1O)c1csc(N)n1)C(=O)O [Example 36]")
0.125
>>> numeric_value("Nc1nc(/C(=N/OC2(C(=O)O)CCCC2)C(=O)N[C@@H]2C(=O)N(S(=O)(=O)O)[C@@H]2CNC(=O)NCc2cc(=O)c(O)cn2O)cs1 [Example 26]")
0.125
>>> numeric_value("CC(C)(O/N=C(\\C(=O)N[C@@H]1C(=O)N(S(=O)(=O)O)[C@@H]1CNC(=O)c1cnc(-c2cc(=O)c(O)c[nH]2)nc1)c1csc(N)n1)C(=O)O [Example 24]")
1
